Test system: Streptococcus pyogenes SSI-9
Test: Antibacterial activity assay of bead-derived peptides (three concentrations)
Type: cell-based
Design: key: +++: inhibition by the 640-fold diluted peptide solution; ++: inhibition by the 160-fold diluted solution; +: inhibition by the 40-fold diluted solution; -: no inhibition
Conditions: S. pyogenes, bead-derived peptide solution, three concentrations
Where a SMILES comes first, the peptide text is derived from it. [ ]: non-standard residue; d: D form. The star is where a group is joined. NHCH2CH2OH = OCCN*; For = O=C*

{"MOLECULE": "CNC(=O)C[C@@H](NC(=O)[C@@H](NC(=O)[C@@H](CC(C)C)NC(=O)[C@H](C)NC(=O)[C@@H](CC(C)C)NC(=O)[C@H](C)NC(=O)CNC(=O)[C@@H](NC=O)C(C)C)C(C)C)C(=O)N[C@@H](Cc1c[nH]c2ccccc12)C(=O)N[C@H](CC(C)C)C(=O)N[C@@H](Cc1c[nH]c2ccccc12)C(=O)N[C@H](CC(C)C)C(=O)N[C@@H](Cc1c[nH]c2ccccc12)C(=O)N[C@H](CC(C)C)C(=O)N[C@@H](Cc1c[nH]c2ccccc12)C(=O)NCCO [compound 8061] (For-VGA[dL]A[dL]V[dD](NHMe)W[dL]W[dL]W[dL]W-NHCH2CH2OH)", "antibacterial activity": "-"}
{"MOLECULE": "CC(C)C[C@@H](NC(=O)[C@H](Cc1c[nH]c2ccccc12)NC(=O)[C@H](NC(=O)[C@H](Cc1c[nH]c2ccccc12)NC(=O)[C@@H](CC(C)C)NC(=O)[C@@H](NC(=O)[C@H](NC(=O)[C@H](C)NC(=O)[C@H](NC(=O)[C@H](C)NC(=O)CNC(=O)[C@@H](NC=O)C(C)C)C(C)C)C(C)C)C(C)C)C(C)C)C(=O)N[C@@H](Cc1c[nH]c2ccccc12)C(=O)N[C@@H](C(=O)N[C@@H](Cc1c[nH]c2ccccc12)C(=O)NCCO)C(C)C [compound 2554] (For-VGA[dV]A[dV]V[dL]W[dV]W[dL]W[dV]W-NHCH2CH2OH)", "antibacterial activity": "++"}
{"MOLECULE": "CC(C)C[C@@H](NC(=O)[C@H](C)NC(=O)CNC(=O)[C@@H](NC=O)C(C)C)C(=O)N[C@@H](C)C(=O)N[C@@H](C(=O)N[C@H](C(=O)N[C@@H](C(=O)N[C@@H](Cc1c[nH]c2ccccc12)C(=O)N[C@H](CC(C)C)C(=O)N[C@@H](Cc1c[nH]c2ccccc12)C(=O)N[C@H](CC(C)C)C(=O)N[C@@H](Cc1c[nH]c2ccccc12)C(=O)N[C@@H](C(=O)N[C@@H](Cc1c[nH]c2ccccc12)C(=O)NCCO)C(C)C)[C@H](C)O)C(C)C)C(C)C [compound 13268] (For-VGA[dL]A[dV]V[dT]W[dL]W[dL]W[dV]W-NHCH2CH2OH)", "antibacterial activity": "+"}
{"MOLECULE": "CC(C)C[C@@H](NC(=O)[C@H](C)NC(=O)CNC(=O)[C@@H](NC=O)C(C)C)C(=O)N[C@@H](C)C(=O)N[C@H](CC(C)C)C(=O)N[C@H](C(=O)N[C@H](CC(C)C)C(=O)N[C@@H](Cc1c[nH]c2ccccc12)C(=O)N[C@H](CC(C)C)C(=O)N[C@@H](Cc1c[nH]c2ccccc12)C(=O)N[C@@H](C(=O)N[C@@H](Cc1c[nH]c2ccccc12)C(=O)N[C@@H](C(=O)N[C@@H](Cc1c[nH]c2ccccc12)C(=O)NCCO)C(C)C)C(C)C)C(C)C [compound 4313] (For-VGA[dL]A[dL]V[dL]W[dL]W[dV]W[dV]W-NHCH2CH2OH)", "antibacterial activity": "+"}

====

System: P388 mouse leukemia cells
Details: 92 h
Where a SMILES comes first, the peptide text is derived from it. [ ]: non-standard residue; d: D form. The star is where a group is joined. NHCH2CH2OH = OCCN*; For = O=C*
I'd be grateful if you could share measured cell viability/% for these entries.
Give the quantity in %, number only.

May I ask what cell viability/% has been recorded for CC(C)C[C@@H](NC(=O)[C@H](C)NC(=O)CNC(=O)[C@@H](NC=O)C(C)C)C(=O)N[C@@H](C)C(=O)N[C@H](CC(C)C)C(=O)N[C@H](C(=O)N[C@@H](C(=O)N[C@@H](Cc1c[nH]c2ccccc12)C(=O)N[C@@H](C(=O)N[C@@H](Cc1c[nH]c2ccccc12)C(=O)N[C@@H](C(=O)N[C@@H](Cc1c[nH]c2ccccc12)C(=O)N[C@H](CC(C)C)C(=O)N[C@@H](Cc1c[nH]c2ccccc12)C(=O)NCCO)[C@H](C)O)C(C)C)C(C)C)C(C)C [compound 8498] (For-VGA[dL]A[dL]V[dV]W[dV]W[dT]W[dL]W-NHCH2CH2OH) ? 52.6

May I ask what cell viability/% has been recorded for CC(C)C[C@@H](NC(=O)[C@H](C)NC(=O)CNC(=O)[C@@H](NC=O)C(C)C)C(=O)N[C@@H](C)C(=O)N[C@@H](C(=O)N[C@H](C(=O)N[C@@H](C(=O)N[C@@H](Cc1c[nH]c2ccccc12)C(=O)N[C@@H](C(=O)N[C@@H](Cc1c[nH]c2ccccc12)C(=O)N[C@H](CC(C)C)C(=O)N[C@@H](Cc1c[nH]c2ccccc12)C(=O)N[C@@H](C(=O)N[C@@H](Cc1c[nH]c2ccccc12)C(=O)NCCO)C(C)C)C(C)C)C(C)C)C(C)C)[C@H](C)O [compound 10415] (For-VGA[dL]A[dT]V[dV]W[dV]W[dL]W[dV]W-NHCH2CH2OH) ? 100.0

May I ask what cell viability/% has been recorded for CC(C)C[C@@H](NC(=O)[C@H](C)NC(=O)CNC(=O)[C@@H](NC=O)C(C)C)C(=O)N[C@@H](C)C(=O)N[C@H](CC(C)C)C(=O)N[C@H](C(=O)N[C@@H](C(=O)N[C@@H](Cc1c[nH]c2ccccc12)C(=O)N[C@@H](C(=O)N[C@@H](Cc1c[nH]c2ccccc12)C(=O)N[C@@H](C(=O)N[C@@H](Cc1c[nH]c2ccccc12)C(=O)N[C@H](CC(C)C)C(=O)N[C@@H](Cc1c[nH]c2ccccc12)C(=O)NCCO)C(C)C)[C@H](C)O)C(C)C)C(C)C [compound 6950] (For-VGA[dL]A[dL]V[dV]W[dT]W[dV]W[dL]W-NHCH2CH2OH) ? 100.0

May I ask what cell viability/% has been recorded for CC(C)C[C@@H](NC(=O)[C@H](Cc1c[nH]c2ccccc12)NC(=O)[C@H](NC(=O)[C@H](Cc1c[nH]c2ccccc12)NC(=O)[C@H](NC(=O)[C@@H](NC(=O)[C@H](NC(=O)[C@H](C)NC(=O)[C@H](NC(=O)[C@H](C)NC(=O)CNC(=O)[C@@H](NC=O)C(C)C)C(C)C)C(C)C)C(C)C)C(C)C)C(C)C)C(=O)N[C@@H](Cc1c[nH]c2ccccc12)C(=O)N[C@@H](C(=O)N[C@@H](Cc1c[nH]c2ccccc12)C(=O)NCCO)C(C)C [compound 9571] (For-VGA[dV]A[dV]V[dV]W[dV]W[dL]W[dV]W-NHCH2CH2OH) ? 100.0

====

Tested on: P388 mouse leukemia cells
Conditions: 92 h
Where a SMILES comes first, the peptide text is derived from it. [ ]: non-standard residue; d: D form. The star is where a group is joined. NHCH2CH2OH = OCCN*; For = O=C*
RECORDED_METRIC: cell viability/% (%)
Give the quantity in %, number only.

May I ask what cell viability/% has been recorded for CNC(=O)C[C@@H](NC(=O)[C@@H](NC(=O)[C@H](NC(=O)[C@H](C)NC(=O)[C@@H](CC(C)C)NC(=O)[C@H](C)NC(=O)CNC(=O)[C@@H](NC=O)C(C)C)C(C)C)C(C)C)C(=O)N[C@@H](Cc1c[nH]c2ccccc12)C(=O)N[C@H](CC(C)C)C(=O)N[C@@H](Cc1c[nH]c2ccccc12)C(=O)N[C@H](CC(C)C)C(=O)N[C@@H](Cc1c[nH]c2ccccc12)C(=O)N[C@@H](C(=O)N[C@@H](Cc1c[nH]c2ccccc12)C(=O)NCCO)C(C)C [compound 8831] (For-VGA[dL]A[dV]V[dD](NHMe)W[dL]W[dL]W[dV]W-NHCH2CH2OH) ? 81.1

====

Tested on: P388 mouse leukemia cells
Details: 92 h
Where a SMILES comes first, the peptide text is derived from it. [ ]: non-standard residue; d: D form. The star is where a group is joined. NHCH2CH2OH = OCCN*; For = O=C*
I'd be grateful if you could share measured cell viability/% for these entries.

May I ask what cell viability/% has been recorded for CNC(=O)C[C@@H](NC(=O)[C@H](Cc1c[nH]c2ccccc12)NC(=O)[C@@H](CC(C)C)NC(=O)[C@H](Cc1c[nH]c2ccccc12)NC(=O)[C@@H](CC(C)C)NC(=O)[C@H](Cc1c[nH]c2ccccc12)NC(=O)[C@H](NC(=O)[C@@H](NC(=O)[C@@H](CC(C)C)NC(=O)[C@H](C)NC(=O)[C@@H](CC(C)C)NC(=O)[C@H](C)NC(=O)CNC(=O)[C@@H](NC=O)C(C)C)C(C)C)C(C)C)C(=O)N[C@@H](Cc1c[nH]c2ccccc12)C(=O)NCCO [compound 11401] (For-VGA[dL]A[dL]V[dV]W[dL]W[dL]W[dD](NHMe)W-NHCH2CH2OH) ? 56.6%

May I ask what cell viability/% has been recorded for CC(C)C[C@@H](NC(=O)[C@H](C)NC(=O)[C@H](NC(=O)[C@H](C)NC(=O)CNC(=O)[C@@H](NC=O)C(C)C)C(C)C)C(=O)N[C@H](C(=O)N[C@@H](C(=O)N[C@@H](Cc1c[nH]c2ccccc12)C(=O)N[C@@H](C(=O)N[C@@H](Cc1c[nH]c2ccccc12)C(=O)N[C@H](CC(C)C)C(=O)N[C@@H](Cc1c[nH]c2ccccc12)C(=O)N[C@H](CC(C)C)C(=O)N[C@@H](Cc1c[nH]c2ccccc12)C(=O)NCCO)C(C)C)C(C)C)C(C)C [compound 7169] (For-VGA[dV]A[dL]V[dV]W[dV]W[dL]W[dL]W-NHCH2CH2OH) ? 90.3%

May I ask what cell viability/% has been recorded for CC(C)C[C@@H](NC(=O)[C@H](C)NC(=O)CNC(=O)[C@@H](NC=O)C(C)C)C(=O)N[C@@H](C)C(=O)N[C@@H](C(=O)N[C@H](C(=O)N[C@H](CC(C)C)C(=O)N[C@@H](Cc1c[nH]c2ccccc12)C(=O)N[C@H](CC(C)C)C(=O)N[C@@H](Cc1c[nH]c2ccccc12)C(=O)N[C@@H](C(=O)N[C@@H](Cc1c[nH]c2ccccc12)C(=O)N[C@H](CC(C)C)C(=O)N[C@@H](Cc1c[nH]c2ccccc12)C(=O)NCCO)C(C)C)C(C)C)C(C)C [compound 3847] (For-VGA[dL]A[dV]V[dL]W[dL]W[dV]W[dL]W-NHCH2CH2OH) ? 0.0%

May I ask what cell viability/% has been recorded for CC(C)C[C@@H](NC(=O)[C@H](C)NC(=O)CNC(=O)[C@@H](NC=O)C(C)C)C(=O)N[C@@H](C)C(=O)N[C@@H](C(=O)N[C@H](C(=O)N[C@H](CC(C)C)C(=O)N[C@@H](Cc1c[nH]c2ccccc12)C(=O)N[C@H](CC(C)C)C(=O)N[C@@H](Cc1c[nH]c2ccccc12)C(=O)N[C@@H](C(=O)N[C@@H](Cc1c[nH]c2ccccc12)C(=O)N[C@H](CC(C)C)C(=O)N[C@@H](Cc1c[nH]c2ccccc12)C(=O)NCCO)[C@H](C)O)C(C)C)C(C)C [compound 11425] (For-VGA[dL]A[dV]V[dL]W[dL]W[dT]W[dL]W-NHCH2CH2OH) ? 41.5%

May I ask what cell viability/% has been recorded for CC(C)C[C@@H](NC(=O)[C@H](C)NC(=O)[C@H](NC(=O)[C@H](C)NC(=O)CNC(=O)[C@@H](NC=O)C(C)C)C(C)C)C(=O)N[C@H](C(=O)N[C@@H](C(=O)N[C@@H](Cc1c[nH]c2ccccc12)C(=O)N[C@H](CC(C)C)C(=O)N[C@@H](Cc1c[nH]c2ccccc12)C(=O)N[C@@H](C(=O)N[C@@H](Cc1c[nH]c2ccccc12)C(=O)N[C@@H](C(=O)N[C@@H](Cc1c[nH]c2ccccc12)C(=O)NCCO)C(C)C)C(C)C)[C@H](C)O)C(C)C [compound 3375] (For-VGA[dV]A[dL]V[dT]W[dL]W[dV]W[dV]W-NHCH2CH2OH) ? 100.0%

May I ask what cell viability/% has been recorded for CNC(=O)C[C@@H](NC(=O)[C@H](Cc1c[nH]c2ccccc12)NC(=O)[C@@H](CC(C)C)NC(=O)[C@H](Cc1c[nH]c2ccccc12)NC(=O)[C@H](NC(=O)[C@H](Cc1c[nH]c2ccccc12)NC(=O)[C@@H](CC(C)C)NC(=O)[C@@H](NC(=O)[C@H](NC(=O)[C@H](C)NC(=O)[C@@H](CC(C)C)NC(=O)[C@H](C)NC(=O)CNC(=O)[C@@H](NC=O)C(C)C)C(C)C)C(C)C)C(C)C)C(=O)N[C@@H](Cc1c[nH]c2ccccc12)C(=O)NCCO [compound 5302] (For-VGA[dL]A[dV]V[dL]W[dV]W[dL]W[dD](NHMe)W-NHCH2CH2OH) ? 100.0%

May I ask what cell viability/% has been recorded for CNC(=O)C[C@@H](NC(=O)[C@H](Cc1c[nH]c2ccccc12)NC(=O)[C@@H](CC(C)C)NC(=O)[C@H](Cc1c[nH]c2ccccc12)NC(=O)[C@H](NC(=O)[C@H](Cc1c[nH]c2ccccc12)NC(=O)[C@@H](CC(C)C)NC(=O)[C@@H](NC(=O)[C@H](NC(=O)[C@H](C)NC(=O)[C@H](NC(=O)[C@H](C)NC(=O)CNC(=O)[C@@H](NC=O)C(C)C)C(C)C)C(C)C)C(C)C)C(C)C)C(=O)N[C@@H](Cc1c[nH]c2ccccc12)C(=O)NCCO [compound 11368] (For-VGA[dV]A[dV]V[dL]W[dV]W[dL]W[dD](NHMe)W-NHCH2CH2OH) ? 61.1%

May I ask what cell viability/% has been recorded for CC(C)C[C@@H](NC(=O)[C@H](C)NC(=O)CNC(=O)[C@@H](NC=O)C(C)C)C(=O)N[C@@H](C)C(=O)N[C@@H](C(=O)N[C@H](C(=O)N[C@@H](C(=O)N[C@@H](Cc1c[nH]c2ccccc12)C(=O)N[C@@H](C(=O)N[C@@H](Cc1c[nH]c2ccccc12)C(=O)N[C@H](CC(C)C)C(=O)N[C@@H](Cc1c[nH]c2ccccc12)C(=O)N[C@@H](C(=O)N[C@@H](Cc1c[nH]c2ccccc12)C(=O)NCCO)C(C)C)C(C)C)C(C)C)C(C)C)C(C)C [compound 5393] (For-VGA[dL]A[dV]V[dV]W[dV]W[dL]W[dV]W-NHCH2CH2OH) ? 100.0%
